Molecular target: human CYP4F22 (Homo sapiens (Human), UniProt Q6NT55)
Sequence (Q6NT55 whole entry): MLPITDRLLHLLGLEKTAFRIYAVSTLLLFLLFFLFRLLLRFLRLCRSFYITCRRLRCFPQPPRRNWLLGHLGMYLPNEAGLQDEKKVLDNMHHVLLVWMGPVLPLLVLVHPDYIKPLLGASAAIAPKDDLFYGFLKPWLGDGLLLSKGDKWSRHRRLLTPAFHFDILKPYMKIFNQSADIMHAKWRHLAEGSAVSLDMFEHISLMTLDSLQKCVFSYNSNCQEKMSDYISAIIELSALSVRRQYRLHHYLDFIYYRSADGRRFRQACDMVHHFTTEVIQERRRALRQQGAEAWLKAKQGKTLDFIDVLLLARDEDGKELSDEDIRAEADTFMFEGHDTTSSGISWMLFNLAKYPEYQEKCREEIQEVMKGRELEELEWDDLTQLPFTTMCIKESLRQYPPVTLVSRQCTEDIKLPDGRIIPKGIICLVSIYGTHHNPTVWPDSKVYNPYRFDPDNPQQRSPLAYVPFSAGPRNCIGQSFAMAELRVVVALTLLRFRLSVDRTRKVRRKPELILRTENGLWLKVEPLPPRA
Experiment: CYP4F22 selectivity test
Type: biochemical
Conditions: cell membrane fraction expressing human CYP4F22, 14 μM luciferine derivative, 50 minutes
measurement.label: IC50 (µM)

Before answering, review these 3 worked examples.
>>> quantitative_result("O=C(O)C1(OCCCCCCCOc2ccc(-c3ccn[nH]3)nc2)COC1")
0.37
>>> quantitative_result("O=C(O)C1(CCCCCCCCOc2ccc(-c3ccn[nH]3)nc2)CS(=O)(=O)C1")
2.3
>>> quantitative_result("O=C(O)[C@@H]1C[C@@H]1c1ccc(CCOc2ccc(-c3ccn[nH]3)nc2)cc1")
2.3

A. O=C(O)[C@@H]1C[C@H]1c1cccc(CCOc2ccc(-c3ccn[nH]3)nc2)c1F
B. O=C(O)C1CC1c1ccc(CCOc2ccc(-c3ccn[nH]3)nc2)c(F)c1 (single isomer, unassigned)
C. O=C(O)C1CC1c1cc(CCOc2ccc(-c3ccn[nH]3)nc2)ccc1F (stereo not drawn)
[in] Rank entries according to their IC50, from the largest number down. State the ranking by listing the labels in the requested order.
[out] A, B, C

* * *

Molecular target: human CYP4A11 (Homo sapiens (Human))
Sequence (Q02928 5-519): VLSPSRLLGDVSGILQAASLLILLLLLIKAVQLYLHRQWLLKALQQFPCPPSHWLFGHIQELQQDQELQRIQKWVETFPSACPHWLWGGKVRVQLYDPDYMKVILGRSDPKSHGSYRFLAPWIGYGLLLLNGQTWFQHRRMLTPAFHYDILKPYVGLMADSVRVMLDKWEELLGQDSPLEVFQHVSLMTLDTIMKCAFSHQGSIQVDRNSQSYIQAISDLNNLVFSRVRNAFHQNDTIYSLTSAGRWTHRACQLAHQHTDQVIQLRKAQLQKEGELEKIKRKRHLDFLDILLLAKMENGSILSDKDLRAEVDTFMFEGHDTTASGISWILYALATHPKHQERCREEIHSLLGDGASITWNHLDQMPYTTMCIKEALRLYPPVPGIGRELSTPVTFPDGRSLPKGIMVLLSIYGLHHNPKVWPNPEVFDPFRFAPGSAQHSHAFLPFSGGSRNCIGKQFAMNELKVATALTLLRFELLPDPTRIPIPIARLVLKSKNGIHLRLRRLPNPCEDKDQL
Test: Inhibition test against 20-HETE producing enzyme CYP4A11 (luciferine derivative, luminescence)
Assay type: biochemical
Conditions: E. coli membrane fraction expressing human CYP4A11, 60 μM luciferine derivative, room temperature 60 minutes
Text: (1) Inhibition Test for Each Compound of the Present Invention Against 20-HETE Producing Enzymes (CYP4F2 and CYP4A11) […] A: Luminescence value with addition of compound B: Luminescence value without addition of compound and enzyme
measurement.label: IC50 (nM)

Some compounds with known IC50 results, for comparison:
>>> quantitative_result("CC(C)(CCCS(=O)(=O)c1cccc(COc2ccc(-c3ccn[nH]3)nc2)c1)C(=O)O [Example 37-1]")
46
>>> quantitative_result("OC1(c2cccc(COc3ccc(-c4ccn[nH]4)nc3)c2)CCCC1 [Example 27-4]")
110
>>> quantitative_result("CC(C)(C(=O)O)n1cc(CCCCOc2ccc(-c3ccn[nH]3)nc2)nn1 [Example 35-3]")
290

a. O=C(O)C12CCC(COc3ccc(-c4ccns4)nc3)(CC1)CC2 [Example 39-2]
b. O=C(O)c1cc(COc2ccc(-c3n[nH]cc3Cl)nc2)ccn1 [Example 1-41]
c. O=S(=O)(NCCc1c[nH]c2ccccc12)c1ccc(COc2ccc(-c3ccn[nH]3)nc2)cc1 [Example 23-3]
d. O=C(O)C1CCCN(c2cccc(COc3ccc(-c4ccn[nH]4)nc3)c2)C1 (centres unmarked) [Example 34-2]
[in] Hi! Can you put these in order of IC50, lowest number first? # output: labels, in the requested order
[out] a, d, b, c
(a: 18 nM, d: 50 nM, b: 97 nM, c: 1700 nM)

* * *

Target: UniProt Q02928
Experiment: Inhibition test against 20-HETE producing enzyme CYP4A11 (luciferine derivative, luminescence)
Format: biochemical
Settings: human CYP4A11, luciferine derivative, luminescence
measurement.label: IC50 (nM)

>>> quantitative_result("CC(C)(COc1cccc(CCCOc2ccc(-c3ccn[nH]3)nc2)n1)C(=O)O [Example 71-41]")
160
>>> quantitative_result("O=C(O)[C@H]1CCCN1C(=O)c1cccc(COc2ccc(-c3ccn[nH]3)nc2)c1 [Example 45-35]")
3200
>>> quantitative_result("O=C(O)COCCCCCCCOc1ccc(-c2ccn[nH]2)nc1 [Example 71-3]")
230
>>> quantitative_result("O=C(O)C1COc2c(CCOc3ccc(-c4ccn[nH]4)nc3)cccc2C1 (centres unmarked) [Example 71-12]")
18
>>> quantitative_result("O=C(O)C1CC1c1cc(F)cc(CCOc2ccc(-c3ccn[nH]3)nc2)c1 (centres unmarked) [Example 74-9]")
47
>>> quantitative_result("O=C(O)c1ccc(CNC(=O)c2cccc(COc3ccc(-c4ccn[nH]4)nc3)c2)cc1 [Example 45-24]")
56
>>> quantitative_result("O=C(O)[C@@H]1CCc2ccc(COc3ccc(-c4ccn[nH]4)nc3)cc2O1 [Example 69-3-1]")
23
>>> quantitative_result("O=C(O)[C@@H]1CCCN1C(=O)c1cccc(COc2ccc(-c3ccn[nH]3)nc2)c1 [Example 45-34]")
220

P. O=C(O)CC1CN(C(=O)c2cccc(COc3ccc(-c4ccn[nH]4)nc3)c2)C1 [Example 45-41]
Q. O=C(O)C1CC1c1cccc(COc2ccc(-c3ccn[nH]3)nc2)c1F (single isomer, unassigned) [Example 71-46]
R. O=C(O)C1CC1c1ccc(COc2ccc(-c3ccn[nH]3)nc2)cc1F (centres unmarked) [Example 70-11]
S. O=C(O)C[C@H]1CCN(C(=O)c2cccc(COc3ccc(-c4ccn[nH]4)nc3)c2)C1 [Example 45-39]
T. O=C(O)/C=C/c1ccc(CCOc2ccc(-c3ccn[nH]3)nc2)cc1 [Example 70-6]
[in] Kindly order the items shown according to IC50, from the highest value down. # respond with the labels, arranged in the requested order
[out] S, P, T, R, Q

A. O=C(O)C1CC1c1cccc(COc2ccc(-c3ccn[nH]3)nc2)c1F (single isomer, unassigned) [Example 71-45]
B. O=C(O)[C@H]1CCc2cc(CCOc3ccc(-c4ccn[nH]4)nc3)ccc2O1 [Example 71-8-2]
[in] Consider A and B . Which of these has its IC50 at a higher number? Your answer should be the label attached to the chosen record.
[out] B
(B: 48 nM, A: 15 nM)

a. O=C(O)C1(Cc2cccc(CCOc3ccc(-c4ccn[nH]4)nc3)c2F)CC1 [Example 72-8]
b. O=C(O)C1CC1c1cc(CCOc2ccc(-c3ccn[nH]3)nc2)ccc1F (centres unmarked) [Example 74-2]
[in] From the recorded data, which exceeds the other in IC50: a or b ? Refer to your chosen item by its label in the answer.
[out] b
